biological target: Glutamate receptor ionotropic, NMDA 2B (Rattus norvegicus); assay: Displacement of [3H]Ro 25,6981 from NR2B NMDA receptor in rat forebrain
Sequence (Q00960 whole entry): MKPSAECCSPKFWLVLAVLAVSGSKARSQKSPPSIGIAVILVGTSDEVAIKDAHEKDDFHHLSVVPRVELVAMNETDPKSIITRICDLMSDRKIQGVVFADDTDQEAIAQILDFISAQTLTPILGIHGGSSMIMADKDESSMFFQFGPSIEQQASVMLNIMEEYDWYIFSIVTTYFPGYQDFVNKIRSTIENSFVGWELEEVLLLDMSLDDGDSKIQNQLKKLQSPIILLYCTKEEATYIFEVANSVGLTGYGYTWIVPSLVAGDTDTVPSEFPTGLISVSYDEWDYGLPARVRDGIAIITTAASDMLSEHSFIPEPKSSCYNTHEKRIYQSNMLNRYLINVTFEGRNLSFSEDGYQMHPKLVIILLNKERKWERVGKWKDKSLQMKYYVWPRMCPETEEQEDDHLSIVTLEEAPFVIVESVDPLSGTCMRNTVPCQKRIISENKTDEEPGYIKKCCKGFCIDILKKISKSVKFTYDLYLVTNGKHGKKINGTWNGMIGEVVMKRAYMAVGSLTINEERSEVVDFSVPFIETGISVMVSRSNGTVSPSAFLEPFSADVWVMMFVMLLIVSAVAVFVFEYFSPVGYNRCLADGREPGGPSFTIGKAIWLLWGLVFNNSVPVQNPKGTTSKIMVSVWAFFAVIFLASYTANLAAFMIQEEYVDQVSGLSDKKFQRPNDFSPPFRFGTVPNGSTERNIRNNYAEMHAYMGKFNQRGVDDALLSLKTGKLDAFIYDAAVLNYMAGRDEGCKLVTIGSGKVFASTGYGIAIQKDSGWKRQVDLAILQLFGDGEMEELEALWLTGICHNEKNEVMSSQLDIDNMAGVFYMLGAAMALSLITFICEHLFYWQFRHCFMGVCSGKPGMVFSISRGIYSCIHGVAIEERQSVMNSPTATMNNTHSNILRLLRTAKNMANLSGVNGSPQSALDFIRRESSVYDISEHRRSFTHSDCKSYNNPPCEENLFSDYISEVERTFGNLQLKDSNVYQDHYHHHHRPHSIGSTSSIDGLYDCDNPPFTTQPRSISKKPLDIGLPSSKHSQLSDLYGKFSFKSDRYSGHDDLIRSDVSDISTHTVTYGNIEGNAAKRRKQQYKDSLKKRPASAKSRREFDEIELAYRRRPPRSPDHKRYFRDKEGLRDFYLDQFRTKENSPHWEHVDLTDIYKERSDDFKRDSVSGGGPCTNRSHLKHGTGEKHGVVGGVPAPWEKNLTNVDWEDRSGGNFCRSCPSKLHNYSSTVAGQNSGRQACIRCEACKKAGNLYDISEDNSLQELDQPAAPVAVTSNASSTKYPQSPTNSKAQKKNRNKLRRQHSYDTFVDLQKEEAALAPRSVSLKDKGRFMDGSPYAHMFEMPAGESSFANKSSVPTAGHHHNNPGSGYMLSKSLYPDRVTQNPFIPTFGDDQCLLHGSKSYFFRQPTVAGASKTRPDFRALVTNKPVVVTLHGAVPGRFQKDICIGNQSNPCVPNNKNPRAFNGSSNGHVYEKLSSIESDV
pIC50: −log10 of the molar value.
PROPERTY: pIC50

Known results for compounds:
Q) Need pIC50 of O=C(c1cc2c(ccc3cn[nH]c32)[nH]1)N1CCC(Cc2ccccc2)CC1 , thanks.
A) 7.19

Q) Can you handle O=C(c1cc2ccc(O)cc2[nH]1)N1CCC(OCc2ccccc2)CC1 next?
A) 7.33

Q) Can you handle O=C(c1cc2ccc(O)cc2[nH]1)N1CCC(Oc2ccccc2)CC1 next?
A) 7.05

(I) COc1cccc(CC2CCN(C(=O)c3nc4cc(O)ccc4[nH]3)CC2)c1
(II) CS(=O)(=O)Nc1cccc2[nH]c(C(=O)N3CCC(Cc4ccccc4)CC3)cc12
Q) Which value of pIC50 is greater, the one for I or the one for II ? // respond with label for picked entry
A) I
(I: 8.52, II: 6.67)

(A) O=C(c1cc2cc(O)cc(O)c2[nH]1)N1CCC(Cc2ccccc2)CC1
(B) COc1ccc(CC2CCN(C(=O)c3cc4ccc(O)cc4[nH]3)CC2)cc1
Q) Which value of pIC50 is greater, the one for A or the one for B ? // respond with label for picked entry
A) B

(P) CS(=O)(=O)Nc1ccc2[nH]c(C(=O)N3CCC(Cc4ccccc4)CC3)cc2c1
(Q) Cc1ccc(CC2CCN(C(=O)c3cc4ccc(O)cc4[nH]3)CC2)cc1
(R) CS(=O)(=O)Nc1ccc2cc(C(=O)N3CCC(Cc4ccccc4)CC3)[nH]c2c1
(S) O=C(c1cc2c(ccc3[nH]ncc32)[nH]1)N1CCC(Cc2ccccc2)CC1
Q) Endpoint returns the given compounds ordered by ascending pIC50. Answer by writing out the labels in the requested order.
A) P, Q, R, S

====

molecular target: Glutamate receptor ionotropic, NMDA 2B (Rattus norvegicus); assay: Antagonist activity at NR2B NMDA receptor in Wistar rat neocortical cells assessed as inhibition of NMDA-evoked elevation of intracellular calcium concentration; assay type: functional, cell-based
pIC50: −log10 of the molar value.
PROPERTY: pIC50

Q) Need pIC50 of N=C(c1cc2ccc(O)cc2[nH]1)N1CCC(Cc2ccccc2)CC1 , thanks.
A) 8.07

Q) Can you handle O=C(c1cc2c(O)cccc2[nH]1)N1CCC(Cc2ccccc2)CC1 next?
A) 7.80

Q) Can you handle CS(=O)(=O)Nc1ccc2[nH]c(C(=O)N3CCC(Cc4ccccc4)CC3)nc2c1 next?
A) 8.89

Q) Can you handle O=C(c1cc2cc(O)cc(O)c2[nH]1)N1CCC(Cc2ccccc2)CC1 next?
A) 7.51

Q) Can you handle COc1ccccc1CC1CCN(C(=O)c2cc3ccc(O)cc3[nH]2)CC1 next?
A) 6.60

Q) Can you handle Nc1ccc2[nH]c(C(=O)N3CCC(Cc4ccccc4)CC3)cc2c1 next?
A) 6.22

Q) Can you handle O=C(c1nc2cc3[nH]c(=O)oc3cc2[nH]1)N1CCC(Cc2ccccc2)CC1 next?
A) 6.71

Q) Can you handle O=C(c1ccccc1)C1CCN(C(=O)c2cc3ccc(O)cc3[nH]2)CC1 next?
A) 6.13

Q) Can you handle O=C(c1nc2cc(O)ccc2[nH]1)N1CCC(Oc2ccc(F)cc2)CC1 next?
A) 8.54

Q) Can you handle Cc1ccc(OC2CCN(C(=O)c3nc4cc(O)ccc4[nH]3)CC2)cc1 next?
A) 8.96

(I) O=C(c1nc2cc(O)ccc2[nH]1)N1CCC(Oc2ccc(Cl)cc2)CC1
(II) Nc1ccc2cc(C(=O)N3CCC(Cc4ccccc4)CC3)[nH]c2c1
(III) O=C(c1cc2ccc(O)cc2[nH]1)N1CCC(C(O)c2ccccc2)CC1 (centres undefined)
Q) Endpoint returns the given compounds ordered by ascending pIC50. Answer by writing out the labels in the requested order.
A) II, III, I
(II: 6.20, III: 6.95, I: 8.77)

(a) O=C(c1cc2ccc(O)cc2[nH]1)N1CCC(Cc2ccc(F)cc2)CC1
(b) Cn1c(C(=O)N2CCC(Cc3ccccc3)CC2)cc2ccc(O)cc21
(c) C[C@@H](CN1CCC(Cc2ccccc2)CC1)[C@@H](O)c1ccc(O)cc1
Q) Please rank these compounds by pIC50 in descending order. Answer by writing out the labels in the requested order.
A) a, c, b

(1) O=C(c1cc2c(ccc3cn[nH]c32)[nH]1)N1CCC(Cc2ccccc2)CC1
(2) O=C(c1cc2cc(O)ccc2s1)N1CCC(Cc2ccccc2)CC1
(3) Oc1ccc2cc(CN3CCC(Cc4ccccc4)CC3)[nH]c2c1
(4) O=C(c1cc2cc(O)ccc2o1)N1CCC(Cc2ccccc2)CC1
Q) Please rank these compounds by pIC50 in descending order. Answer by writing out the labels in the requested order.
A) 1, 3, 4, 2
